- targetEntity: T1, HCV Core1-169 (HCV-1, UniProt P26664 1-169)
- T1 construct: also called recombinant HCV core antigen
- T1 sequence: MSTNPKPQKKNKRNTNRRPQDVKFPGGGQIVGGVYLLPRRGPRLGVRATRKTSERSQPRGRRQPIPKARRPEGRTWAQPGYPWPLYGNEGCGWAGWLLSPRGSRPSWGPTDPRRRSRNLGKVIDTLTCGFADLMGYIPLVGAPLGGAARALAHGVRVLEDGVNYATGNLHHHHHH
- procedureText: EIA, core1-169 coated on plate; further: test concentration or dose not given here
resultType: OD (A492) (OD)
The answer is to be given in OD; state only the numeric part.

Ask: // returns reported OD (A492) for input HCV 208A-605 (antibody, V domains shown) VH: EVQLQQSGPELEKPGASVKISCKTSGYTFTEYAIHWVKQSHGMSLEWIGGINPSNGNAIYNQIFKDKATLTVDRSSSTAYMGLRSLTFGDSGVYFCVRRQLDFFDYWGQGASLTVSS VL: DIVVTQSPASLAVSLGQRATISCRASQSVSTSRYSYLHWYQQKPGQPPKLLIKYASNLESGVPARFSGSGSGTDFTLNIHPVGEEDTATYYCQHSWEFPFTFGSGTKLEIKR
Reply: 0.55

Field: next binder
Ask: // returns reported OD (A492) for input HCV 208A-133 (antibody, V domains shown) VH: QLQQSGPVLVGPGASVMISCKTSGYTFTENAMHWVEQSHGKSLEWIGGVNPNNGDTIFNQKFKGKATLTVDKSSSTAFMEFRSLTSEESTVYYCVRRELDFFDYWGQGTSVTVSS VL: DIVLTQSPASLAVSLGQRATISCRASQSVSTSRYSYMHWYQQKPGQPPKLLIKYASNLESGVPARFSGSGSGTDFTLNIHPVAEEDTATYYCQHSWEFPFTFGSGTKLEIKR
Reply: 1.73
